Target entity: human apelin receptor (Homo sapiens, UniProt P35414)
Construct: expressed in transfected cells
Sequence (P35414 whole entry): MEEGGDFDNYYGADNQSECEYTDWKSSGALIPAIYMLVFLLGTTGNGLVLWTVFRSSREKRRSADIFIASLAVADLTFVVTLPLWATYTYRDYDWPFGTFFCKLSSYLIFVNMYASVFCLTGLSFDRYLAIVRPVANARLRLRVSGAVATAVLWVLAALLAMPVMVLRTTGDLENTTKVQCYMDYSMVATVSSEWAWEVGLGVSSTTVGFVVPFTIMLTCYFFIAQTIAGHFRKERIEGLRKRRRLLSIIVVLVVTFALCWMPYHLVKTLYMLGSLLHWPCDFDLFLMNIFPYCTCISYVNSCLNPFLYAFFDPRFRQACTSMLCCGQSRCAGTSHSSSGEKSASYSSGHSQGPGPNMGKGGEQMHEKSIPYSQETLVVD
Assay protocol: Determination of agonism on the human apelin receptor by a calcium fluorescence assay (FLIPR)
Assay type: cell-based
Measurement parameters: HEK293 cells stably transfected with human apelin receptor and Giaq protein, Fluo-4 calcium fluorescence, read-out: EC50 (APJ agonism)
Here the recorded EC50 is given for each entry.

Compound | EC50 [nM]
CCC(CC)n1c(Cc2cccs2)nc2cc(C(=O)N[C@@H](CC(C)C)C(=O)N3CCC(N(CC)Cc4ccccc4)CC3)ccc21 | 1260
CCC(CC)n1c(Cc2cccs2)nc2cc(C(=O)NC3(C(=O)O)CCCCCC3)ccc21 | 359
CC(C)CC(C)n1c(Cc2cccs2)nc2cc(C(=O)N[C@@H](CC(C)C)C(=O)O)ccc21 (stereo partly shown) | 3040
C[C@@H]1CCCC[C@H]1n1c(Cc2cccs2)nc2cc(C(=O)NC(CC3CCCCCC3)C(=O)O)ccc21 (single isomer, unassigned) [Example 451] | 1230
CCC(CC)n1c(Cc2cccs2)nc2cc(C(=O)N[C@@H](CC(C)C)[C@H](O)CC(=O)O)ccc21 | 62
CCC(CC)n1c(Cc2cccs2)nc2cc(C(=O)N[C@@H](CC(C)C)C(=O)N3CCC(N(CC)CC)C3)ccc21 (stereo partly shown) | 362
CCC(CC)n1c(Cc2cccs2)nc2cc(C(=O)NC(Cc3ccc(C(F)(F)F)cc3)C(=O)O)ccc21 (stereo not shown) | 4110
